- Assay Target: TJP2_1, Q9UDY2
- Sequence (Q9UDY2 24-128): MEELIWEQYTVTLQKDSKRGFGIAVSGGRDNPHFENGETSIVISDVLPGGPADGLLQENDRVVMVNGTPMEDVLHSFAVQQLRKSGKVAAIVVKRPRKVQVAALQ
- Protocol Summary: holdup assay
- Parameters: key: below the threshold = too weak to quantify, mostly under pKd 3.1 to 4
- Particulars: plain residues with an end cap or a label only (N-terminal biotin on a linker: ado-ado)
Readout Type: pKd

>  <Binder>
NVYGIESVKI [GRIA2, P42262]

>  <Result>
3.56

$$$$
>  <Binder>
EKCGKEFSEF [PRKACA, P17612]

>  <Result>
below the threshold

$$$$
>  <Binder>
DDASLPVSDV [PLEKHA1, Q9HB21]

>  <Result>
below the threshold

$$$$
>  <Binder>
SLNANEVEWF [RNF130, Q86XS8]

>  <Result>
3.67

$$$$
>  <Binder>
LAHVKHKEQI [AQP3, Q92482]

>  <Result>
below the threshold

$$$$
>  <Binder>
SRSVVESDEL [MYPN, Q86TC9]

>  <Result>
below the threshold

$$$$
>  <Binder>
ELSATVTTDC [TRIP6, Q15654]

>  <Result>
below the threshold

$$$$
>  <Binder>
TISFTQTSQF [SLC1A1, P43005]

>  <Result>
below the threshold

$$$$
>  <Binder>
AQRARSPSDV [GPR12, P47775]

>  <Result>
below the threshold

$$$$
>  <Binder>
REEPDHSTEV [CCRL2, O00421]

>  <Result>
below the threshold

$$$$
>  <Binder>
EDPRVEVTQF [SLC22A9, Q8IVM8]

>  <Result>
below the threshold

$$$$
>  <Binder>
MHIQEKGFHV [EPHA6, Q9UF33]

>  <Result>
below the threshold

$$$$
>  <Binder>
NNNVVKVDSV [MTNR1A, P48039]

>  <Result>
below the threshold

$$$$
>  <Binder>
EPQYQPGENL [SRC, P12931]

>  <Result>
below the threshold

$$$$
>  <Binder>
APIAGFSSFV [SDK2, Q58EX2]

>  <Result>
4.19

$$$$
>  <Binder>
PTPDLPQTRV [KLHDC7A, Q5VTJ3]

>  <Result>
below the threshold

$$$$
>  <Binder>
RFQQRMQTHV [KIRREL1, Q96J84]

>  <Result>
4.82

$$$$
>  <Binder>
PSVGSKKTVL [REELD1, A0A1B0GV85]

>  <Result>
4.1

$$$$
>  <Binder>
SFISKKEWYV [NECTIN1, Q15223]

>  <Result>
4

$$$$
>  <Binder>
EDGESWEYQI [TRPV6, Q9H1D0]

>  <Result>
below the threshold

$$$$
>  <Binder>
QSGLYESEEL [MYOT, Q9UBF9]

>  <Result>
below the threshold

$$$$
>  <Binder>
NTLNRKTTPV [CACNG8, Q8WXS5]

>  <Result>
4.05

$$$$
>  <Binder>
EDLEDEWEVI [TECPR2, O15040]

>  <Result>
below the threshold

$$$$
>  <Binder>
TGLWKHETTV [ADGRA3, Q8IWK6]

>  <Result>
3.65

$$$$
>  <Binder>
IDESKKEWLI [CNTNAP2, Q9UHC6]

>  <Result>
below the threshold

$$$$
>  <Binder>
TNSRHGETTV [FZD2, Q14332]

>  <Result>
below the threshold

$$$$
>  <Binder>
KRPEMTSSSV [MUC3A, MUC3B, Q02505;Q9H195]

>  <Result>
below the threshold

$$$$
>  <Binder>
NISYRRESAI [KCNJ4, P48050]

>  <Result>
below the threshold

$$$$
>  <Binder>
DTKNYKQTSV [CRIPT, Q9P021]

>  <Result>
below the threshold

$$$$
>  <Binder>
KSRVAFFEEL [NF2, P35240]

>  <Result>
3.63

$$$$
>  <Binder>
PSHPRLQTHV [KIRREL2, Q6UWL6]

>  <Result>
4.58

$$$$
>  <Binder>
KPGKGSETVV [FZD4, Q9ULV1]

>  <Result>
below the threshold

$$$$
